B1: tRNA (parent)
chain: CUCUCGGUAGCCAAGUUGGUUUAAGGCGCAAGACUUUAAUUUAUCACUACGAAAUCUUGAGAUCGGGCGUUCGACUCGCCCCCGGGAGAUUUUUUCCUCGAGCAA

variants of: B1; assay: nonsense suppression (GFP-seq) (ratio to wild type); higher = more function; SUP4oc tRNA, yeast GFP reporter sort-seq
Variants at the floor of the assay were thinned out.
RECORDED METRIC: nonsense suppression

{"columns": ["MUTATION STRING", "nonsense suppression"],
 "data": [
  ["A30U A31U C80A", "≤ 0.026"],
  ["U2G G10A C11G U20G A33G", "≤ 0.026"]
]}

**Query** Report nonsense suppression for U16C U17C G18A G67A please.
**Result** ≤ 0.026

**Query** Report nonsense suppression for A14C U63G A87C please.
**Result** ≤ 0.026
